Organism: Cavia porcellus
Assay: Concentration required to depress contraction in the Langendorff-perfused guinea pig heart
Assay type: functional
Below, each entry is listed alongside its reported pIC25.
Lab note: write the figure by itself, no unit.

Example entries begin here.
[
  {
    "MOLECULE": "COC(=O)C1=C(C)NC(C)=C(C(=O)OC)C1c1ccccc1[N+](=O)[O-] [NIFEDIPINE]",
    "REPORTED": 7.5
  },
  {
    "MOLECULE": "CCO/C(O)=C1\\C(COCCn2ccnn2)=NC(C)=C(C(=O)OC)C1c1ccccc1Cl (stereo not given)",
    "REPORTED": 7.3
  }
]

**Q:** Requested field: pIC25. Item: CCO/C(O)=C1\C(COCCn2c(C)nc(C)c2C)=NC(C)=C(C(=O)OC)C1c1ccccc1Cl (stereo not given)
**A:** 7.5

**Q:** Requested field: pIC25. Item: CCOC(=O)c1cnnn1CCOCC1=NC(C)=C(C(=O)OC)C(c2ccccc2Cl)/C1=C(\O)OCC (stereo not given)
**A:** 6.9
